Hey, just so you know, these numbers are from ChEMBL document CHEMBL4689842.

Consider the following compounds; for each one, report its Population Apoptotic (%).
# System: Fibroblast
# methodNotes: Multiplex assay against human fibroblast
# Type: toxicity, cell-based
# runConditions: 12 h, 1 µM, compound concentration 1 uM, replicate 1
Hi! Could you send only the number? It should be in %, unit omitted.

Query block: Annotate the compound CN1CCN(c2ccc(OC(F)(F)F)c(Nc3ncc4c(n3)-c3c(c(C(N)=O)nn3CCO)CC4)c2)CC1 with its measured Population Apoptotic (%).
Result block: 63

Query block: Return Population Apoptotic (%) (reported value) for this compound: C=CC(=O)Nc1cc2c(Nc3ccc(F)c(Cl)c3)ncnc2cc1OCCCN1CCOCC1.Cl.Cl [CANERTINIB DIHYDROCHLORIDE]
Result block: 73

Query block: Note Population Apoptotic (%) for the compound shown: Cc1csc2c(N[C@@H](C)CN3CCN(S(=O)(=O)c4ccc(Cl)c(Cl)c4)CC3)ncnc12
Result block: 56

Query block: Return Population Apoptotic (%) (reported value) for this compound: COc1ncc(-c2ccc3nccc(-c4ccnnc4)c3c2)cc1NS(=O)(=O)c1ccc(F)cc1F
Result block: 57

Query block: Return Population Apoptotic (%) for the following compound: CN1CCCC(n2nc(Cc3ccc(Cl)cc3)c3ccccc3c2=O)CC1.Cl (configuration not stated) [AZELASTINE HYDROCHLORIDE]
Result block: 47

Query block: Check the records and state Population Apoptotic (%) for CN(C)C(=O)/C(C#N)=C/c1ccc(-c2nc3cnc4[nH]ccc4c3n2C2CCCCC2)o1
Result block: 67

Query block: Give recorded Population Apoptotic (%). CC(C)NCC(O)COc1ccc(CCOCC2CC2)cc1.Cl (configuration not stated) [BETAXOLOL HYDROCHLORIDE]
Result block: 41

Query block: Read off the recorded Population Apoptotic (%) for c1cn2cc(-c3ccc4cn[nH]c4c3)nc(Nc3ccc(N4CCOCC4)cc3)c2n1
Result block: 60

Query block: Answer with the recorded Population Apoptotic (%) for the compound listed here: C[C@@]1(C(=O)Nc2ccc(F)nc2)CCCN1c1nc(Nc2cc(C3CC3)n[nH]2)c2cccn2n1
Result block: 63

Query block: Specify reported Population Apoptotic (%) for the compound shown: Cn1cc(-c2[nH]c3cc(NC(=O)[C@H](N)C4CCCCC4)cc4c3c2C=NNC4=O)cn1
Result block: 76

Query block: Identify the reported Population Apoptotic (%) for the following entry. Cl.N#Cc1ccc2[nH]cc(CCCCN3CCN(c4ccc5oc(C(N)=O)cc5c4)CC3)c2c1 [VILAZODONE HYDROCHLORIDE]
Result block: 75

Query block: Annotate the compound O=C1NCN(c2ccccc2)C12CCN(CCCOc1ccc(F)cc1)CC2 [SPIRAMIDE] with its measured Population Apoptotic (%).
Result block: 75

Query block: Consider the compound CNc1nc(NCc2ccc(NS(C)(=O)=O)cc2Cl)cc(-c2ccccn2)n1 . State its measured Population Apoptotic (%).
Result block: 70

Query block: Return Population Apoptotic (%) (reported value) for this compound: Cc1cc(C)cc(-c2cnc3cc(Cl)c(-c4cccc(O)c4)cc3c2OCCCN)c1
Result block: 44

Query block: Return reported Population Apoptotic (%). Input compound: COc1cc(-n2cnc3cc(-c4ccc(Cl)cc4)sc3c2=O)ccc1OCCN1CCCC1
Result block: 52

Query block: Name the recorded Population Apoptotic (%) of the compound listed here: OC1(c2ccc(Cl)cc2)CCN(Cc2c[nH]c3ccccc23)CC1
Result block: 58

====

# System: HEK-293T
# methodNotes: Multiplex assay against HEK293T;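 note: share of the cells with healthy nuclei that show this phenotype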
# Type: toxicity, cell-based
# runConditions: human, 24 h, 1 µM, compound concentration 1 uM, replicate 2
Kindly state Population Tubulin-Different-Phenotype (%) for each of the entries shown.
Note: unit % is implicit; provide only the numeric part.

Query block: For the molecule Cc1csc2c(N[C@@H](C)CN3CCN(S(=O)(=O)c4ccc(Cl)c(Cl)c4)CC3)ncnc12 , report Population Tubulin-Different-Phenotype (%).
Result block: 88

Query block: Return value of Population Tubulin-Different-Phenotype (%) for input C[C@@H](NCCCc1cccc(C(F)(F)F)c1)c1cccc2ccccc12.Cl [CINACALCET HYDROCHLORIDE] , no commentary.
Result block: 60

Query block: Read off the recorded Population Tubulin-Different-Phenotype (%) for CN1CCC[C@@H]1CCO[C@](C)(c1ccccc1)c1ccc(Cl)cc1.O=C(O)/C=C/C(=O)O [CLEMASTINE FUMARATE]
Result block: 60

Query block: Provide Population Tubulin-Different-Phenotype (%) value for the following molecule: CN(C)C(=O)N[C@H]1CC[C@H](CCN2CCN(c3cccc(Cl)c3Cl)CC2)CC1.Cl [CARIPRAZINE HYDROCHLORIDE]
Result block: 33

Query block: Report Population Tubulin-Different-Phenotype (%) for C=CC(=O)Nc1ccc2ncnc(Nc3ccc(OCc4cccc(F)c4)c(Cl)c3)c2c1.Cc1ccc(S(=O)(=O)O)cc1
Result block: 30

Query block: Output Population Tubulin-Different-Phenotype (%) of C=CC(=O)Nc1cc2c(Nc3ccc(F)c(Cl)c3)ncnc2cc1OCCCN1CCOCC1.Cl.Cl [CANERTINIB DIHYDROCHLORIDE]
Result block: 54

Query block: Give the reported value of Population Tubulin-Different-Phenotype (%) for this record: Cc1nc(Nc2n[nH]c3c2CN(C(=O)N[C@H](CN(C)C)c2ccccc2)C3(C)C)c2sccc2n1
Result block: 21

====

# Test system: U2OS
# methodNotes: Incucyte cell viability with U2OS; note: filed as whole numbers so only -1 and 0 and 1 occur
# Type: toxicity, cell-based
# runConditions: human, 24 h, 10 µM, compound concentration 10 uM, replicate number 1, timepoint 24 hours
measuredMetric: Growth Rate
Keep the answer to the number alone.

Query block: Recall and state the measured Growth Rate for NC(=O)Nc1cc(-c2cccc(F)c2)sc1C(=O)N[C@H]1CCCNC1 .
Result block: 0

Query block: Give reported Growth Rate value for CCOCCn1cc(C(=O)Nc2ccc(-n3nc(-c4cccnc4)cc3C(F)(F)F)cn2)ccc1=O
Result block: 0

Query block: // Input: O=C(NCCCN1CCOC1=O)c1cnc(NCc2cc(Br)ccc2Br)nc1NC1CCCC1 . Output its Growth Rate only.
Result block: 1

Query block: Please look at this compound and report its Growth Rate: CCCc1nc2c(C)cc(-c3nc4ccccc4n3C)cc2n1Cc1ccc(-c2ccccc2C(=O)O)cc1
Result block: 1

Query block: Name the recorded Growth Rate of the compound listed here: CN(C)S(=O)(=O)c1ccc(NC(=S)N2CCC(C(O)(c3ccccc3)c3ccccc3)CC2)cc1
Result block: 0

====

# Tested on: Fibroblast
# methodNotes: Multiplex assay against human fibroblast
# Assay type: toxicity, cell-based
# runConditions: 12 h, 10 µM, compound concentration 10 uM, replicate 1
Criterion: Population Mitochondria Different-Phenotype (%) meeting or surpassing 20%. Met: Satisfied. Not met: Not satisfied.

Query block: Threshold query (Population Mitochondria Different-Phenotype (%) >= 20%) on CN1CCN(CCOc2cc(OC3CCOCC3)c3c(Nc4c(Cl)ccc5c4OCO5)ncnc3c2)CC1
Result block: Satisfied

Query block: Would you say CC(C)NCC(O)COc1ccc(CCOCC2CC2)cc1.Cl (stereo not drawn) [BETAXOLOL HYDROCHLORIDE] shows Population Mitochondria Different-Phenotype (%) at minimum 20%?
Result block: Not satisfied

Query block: # bool: Population Mitochondria Different-Phenotype (%) of CN(C)C(=O)/C(C#N)=C/c1ccc(-c2nc3cnc4[nH]ccc4c3n2C2CCCCC2)o1 >= 20%
Result block: Not satisfied

Query block: Population Mitochondria Different-Phenotype (%) >= 20% for CNCc1ccc(-c2cc(-c3nc(-c4ccc(S(=O)(=O)C(C)C)cc4)cnc3N)on2)cc1 ?
Result block: Not satisfied

Query block: Is reported Population Mitochondria Different-Phenotype (%) greater than or equal to 20% here: C=CC(=O)Nc1cccc(C(=O)Nc2ccc(Nc3cc(-c4[nH]c(SC)nc4C)ccn3)cc2)c1
Result block: Not satisfied

Query block: In plain terms: is recorded Population Mitochondria Different-Phenotype (%) at least 20% for Cc1nc(-c2ccc(-c3ccc(C(=O)N4CCc5cc6c(cc54)C4(CCN(C)CC4)CO6)cc3)c(C)c2)no1 ?
Result block: Satisfied

Query block: // inclusive: Population Mitochondria Different-Phenotype (%) at least 20%? input: NC(=O)Nc1cc(-c2cccc(F)c2)sc1C(=O)N[C@H]1CCCNC1
Result block: Not satisfied

Query block: Form field: Population Mitochondria Different-Phenotype (%) at least 20%? Entry: CN(C)C(=O)N[C@H]1CC[C@H](CCN2CCN(c3cccc(Cl)c3Cl)CC2)CC1.Cl [CARIPRAZINE HYDROCHLORIDE]
Result block: Satisfied
